Test: IAM chromatography (IAM.PC.DD.2 column) and estimated human oral absorption
Format: in vitro ADME
Details: Equation (1) from logkw and physicochemical properties
Result Type: %HOA estimated human oral absorption (%)
Lab book: enter the figure in %, no units written.

- Line Notation: "CC(=O)Oc1cccc2oc(=O)c(-c3ccc(F)cc3)c(C)c12"
  Result Unit: "%"
  %HOA estimated human oral absorption: 99.7
- Line Notation: "CC(=O)Oc1ccc(-c2c(C)c3cc(Br)cc(Br)c3oc2=O)cc1OC(C)=O"
  Result Unit: "%"
  %HOA estimated human oral absorption: 99.6
- Line Notation: "Cc1c(-c2ccccc2Cl)c(=O)oc2cccc(O)c12"
  Result Unit: "%"
  %HOA estimated human oral absorption: 100
- Line Notation: "Cc1c(-c2ccc(O)cc2)c(=O)oc2ccc(Cl)cc12"
  Result Unit: "%"
  %HOA estimated human oral absorption: 99.5
- Line Notation: "CC(=O)Oc1cccc2oc(=O)c(-c3cccc(Cl)c3)c(C)c12"
  Result Unit: "%"
  %HOA estimated human oral absorption: 99.8

Memo: `CC(=O)Oc1cccc2oc(=O)c(-c3cccc(Br)c3)c(C)c12` , reported %HOA estimated human oral absorption: 100.0

Memo: `Cc1c(-c2ccc(Cl)cc2)c(=O)oc2cccc(O)c12` , reported %HOA estimated human oral absorption: 100

* * *

Test: Inhibition of AAPH induced linoleic acid oxidation (lipid peroxidation)
Settings: 100 μΜ
Result Type: AAPH % inhibition (100 μΜ) (%)
Lab book: enter the figure in %, no units written.

- Molecule: "Cc1c(-c2ccc(O)cc2)c(=O)oc2ccc(Cl)cc12"
  Result Type: "AAPH % inhibition (100 μΜ)"
  Result Unit: "%"
  Value: 36.1

Memo: Cc1c(C)c2c(c(C)c1O)CCC(C)(C(=O)O)O2 (centres unmarked) [Trolox, reference compound] , reported AAPH % inhibition (100 μΜ): 92

Memo: `Cc1c(-c2cccc(F)c2)c(=O)oc2cccc(O)c12` , reported AAPH % inhibition (100 μΜ): 31.0

Memo: `Cc1c(-c2ccccc2F)c(=O)oc2cccc(O)c12` , reported AAPH % inhibition (100 μΜ): 0.0

* * *

# reported pIC50; entries follow
Target: soybean LOX (Glycine max)
Sequence (P08170 1-839): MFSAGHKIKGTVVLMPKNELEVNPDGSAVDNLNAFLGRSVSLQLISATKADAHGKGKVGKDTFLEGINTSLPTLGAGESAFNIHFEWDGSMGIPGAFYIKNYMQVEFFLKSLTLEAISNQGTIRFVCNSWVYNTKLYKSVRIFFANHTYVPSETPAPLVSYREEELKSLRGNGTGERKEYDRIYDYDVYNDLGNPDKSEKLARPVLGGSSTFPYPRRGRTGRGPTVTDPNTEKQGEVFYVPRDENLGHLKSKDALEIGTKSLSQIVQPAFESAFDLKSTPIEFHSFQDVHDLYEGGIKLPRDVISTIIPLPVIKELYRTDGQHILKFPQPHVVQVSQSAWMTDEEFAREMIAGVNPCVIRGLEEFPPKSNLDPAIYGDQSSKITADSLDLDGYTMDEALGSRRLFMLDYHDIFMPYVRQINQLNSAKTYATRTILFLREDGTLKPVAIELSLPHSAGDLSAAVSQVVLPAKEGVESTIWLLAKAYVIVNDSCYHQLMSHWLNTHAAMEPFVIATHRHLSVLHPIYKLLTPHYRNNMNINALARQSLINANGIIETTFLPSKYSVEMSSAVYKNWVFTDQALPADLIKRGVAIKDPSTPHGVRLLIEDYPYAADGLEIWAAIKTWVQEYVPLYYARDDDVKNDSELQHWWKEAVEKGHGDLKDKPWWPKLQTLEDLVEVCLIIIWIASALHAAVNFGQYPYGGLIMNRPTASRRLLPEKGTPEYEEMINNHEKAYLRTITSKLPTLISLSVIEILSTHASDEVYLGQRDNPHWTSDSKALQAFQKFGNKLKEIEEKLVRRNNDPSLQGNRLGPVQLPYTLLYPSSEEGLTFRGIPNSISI
A value of pIC50 is the negative decimal logarithm of a concentration given in moles per litre.

- Line Notation: "Cc1c(-c2ccccc2F)c(=O)oc2cccc(O)c12"
  Result Type: "pIC50"
  Value: 4.50
- Line Notation: "Cc1c(-c2ccccc2Cl)c(=O)oc2cccc(O)c12"
  Result Type: "pIC50"
  Value: 5.00
- Line Notation: "CC(=O)Oc1ccc(-c2c(C)c3cc(Cl)ccc3oc2=O)cc1OC(C)=O"
  Result Type: "pIC50"
  Value: 4.25

Memo: `CC(=O)Oc1cccc2oc(=O)c(-c3cccc(Br)c3)c(C)c12` , reported pIC50: 4.39

Memo: `CC(=O)Oc1ccc(-c2c(C)c3cc(Br)cc(Br)c3oc2=O)cc1` , reported pIC50: 5.06

Memo: `CC(=O)Oc1cccc2oc(=O)c(-c3cccc(Cl)c3)c(C)c12` , reported pIC50: 4.50

Memo: `CC(=O)Oc1cccc2oc(=O)c(-c3cccc(F)c3)c(C)c12` , reported pIC50: 4.94

Memo: `Cc1c(-c2cccc(F)c2)c(=O)oc2cccc(O)c12` , reported pIC50: 5.39

Memo: `CC(=O)Oc1ccc(-c2c(C)c3cc(Cl)ccc3oc2=O)cc1` , reported pIC50: 4.31

* * *

Tested on: A375 cells
Experiment: MTT cytotoxicity assay, A375
Assay type: cell-based, human
Conditions: Homo sapiens, A-375, 24 h, A375, 100 μΜ, read-out: Cell Toxicity A375 % (100 μΜ)
# reported cytotoxicity at 100 µM; entries follow
Lab book: enter the figure in %, no units written.

- Line Notation: "CC(=O)Oc1cccc2oc(=O)c(-c3ccccc3Cl)c(C)c12"
  Result Unit: "%"
  cytotoxicity at 100 µM: 38.7
- Line Notation: "CC(=O)Oc1cccc2oc(=O)c(-c3ccc(Cl)cc3)c(C)c12"
  Result Unit: "%"
  cytotoxicity at 100 µM: 24.8
- Line Notation: "Cc1c(-c2ccc(Cl)cc2)c(=O)oc2cccc(O)c12"
  Result Unit: "%"
  cytotoxicity at 100 µM: 22.2
- Line Notation: "CC(=O)Oc1ccc(-c2c(C)c3cc(Br)ccc3oc2=O)cc1OC(C)=O"
  Result Unit: "%"
  cytotoxicity at 100 µM: 33.3

Note to self: cytotoxicity at 100 µM of `Cc1c(-c2ccc(O)cc2)c(=O)oc2ccc(Cl)cc12` with A375 cells was 11.9

* * *

Molecular target: soybean LOX (Glycine max, UniProt P08170)
Construct: purchased Sigma-Aldrich and Fluka
Sequence (P08170 1-839): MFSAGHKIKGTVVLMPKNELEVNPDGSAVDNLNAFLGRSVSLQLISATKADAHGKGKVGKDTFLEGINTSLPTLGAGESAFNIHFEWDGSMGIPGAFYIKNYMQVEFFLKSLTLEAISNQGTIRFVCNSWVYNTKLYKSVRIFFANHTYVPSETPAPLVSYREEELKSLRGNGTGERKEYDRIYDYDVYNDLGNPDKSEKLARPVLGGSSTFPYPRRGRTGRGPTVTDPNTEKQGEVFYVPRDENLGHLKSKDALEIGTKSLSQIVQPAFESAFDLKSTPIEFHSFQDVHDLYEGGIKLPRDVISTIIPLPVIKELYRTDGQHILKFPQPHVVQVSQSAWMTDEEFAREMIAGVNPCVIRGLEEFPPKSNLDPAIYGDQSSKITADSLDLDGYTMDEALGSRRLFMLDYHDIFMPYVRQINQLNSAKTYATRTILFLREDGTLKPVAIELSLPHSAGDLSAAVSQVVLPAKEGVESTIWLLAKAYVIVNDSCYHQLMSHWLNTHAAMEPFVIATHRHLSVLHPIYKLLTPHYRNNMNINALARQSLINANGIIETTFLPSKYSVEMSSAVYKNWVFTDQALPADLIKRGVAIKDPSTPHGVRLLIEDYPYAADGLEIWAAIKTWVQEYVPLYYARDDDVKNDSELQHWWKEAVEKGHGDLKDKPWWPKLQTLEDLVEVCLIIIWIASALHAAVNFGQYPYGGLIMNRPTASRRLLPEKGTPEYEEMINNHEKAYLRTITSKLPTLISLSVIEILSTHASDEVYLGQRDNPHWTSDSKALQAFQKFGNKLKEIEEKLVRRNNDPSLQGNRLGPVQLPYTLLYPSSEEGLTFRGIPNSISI
Experiment: Inhibition of soybean LOX
Assay type: biochemical
Conditions: 100 μΜ
Result Type: Soybean LOX % inhibition (100 μΜ)

- Line Notation: "Cc1c(-c2ccc(O)cc2)c(=O)oc2c(Br)cc(Br)cc12"
  Result Type: "Soybean LOX % inhibition (100 μΜ)"
  Value: "inactive"
- Line Notation: "CC(=O)Oc1cccc2oc(=O)c(-c3ccc(Cl)cc3)c(C)c12"
  Result Type: "Soybean LOX % inhibition (100 μΜ)"
  Value: "no"
- Line Notation: "CC(=O)Oc1ccc(-c2c(C)c3cc(Br)cc(Br)c3oc2=O)cc1OC(C)=O"
  Result Type: "Soybean LOX % inhibition (100 μΜ)"
  Value: "no"
- Line Notation: "CC(=O)Oc1cccc2oc(=O)c(-c3ccc(F)cc3)c(C)c12"
  Result Type: "Soybean LOX % inhibition (100 μΜ)"
  Value: "inactive"

Memo: `CC(=O)Oc1cccc2oc(=O)c(-c3ccccc3Cl)c(C)c12` , reported Soybean LOX % inhibition (100 μΜ): inactive

Memo: `CC(=O)Oc1cccc2oc(=O)c(-c3ccccc3F)c(C)c12` , reported Soybean LOX % inhibition (100 μΜ): inactive

Value source: paper PMC8512853
